# assay overview: small-molecule microarray binders of probe aShh, primary screen, biochemical, biotinylated probe, 635/667 nm fluorescence (AID 1114);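 also: probe is biotin-labelled aShh protein from a stem cell growth factor screen; measures binding of labelled protein to compounds printed on the slide; score merges feature fluorescence at 667 nm with signal-to-noise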
# cond: higher = more signal

compound	composite z-score
CCOC(=O)C1=CCC(c2cc3ccccc3[nH]2)N(S(=O)(=O)c2ccccc2[N+](=O)[O-])C1 (configuration not stated)	0.0121
COc1ccc([Si](C)(C)[C@@H]2[C@@H](CCO)O[C@]3(C(=O)N(Cc4ccccc4)c4ccc(N5C(=O)c6ccccc6Oc6ccccc65)cc43)[C@H]2C)cc1	-0.0605
CC(C)(C)N1CC=CC23O[C@@H]4/C=C\CCCOC(=O)C4[C@H]2C(=O)N(CCCCCCO)[C@@H]3C1=O (some centres not stated)	0.0952
CC1CC/C=C\[C@H]2OC34C=CCN(c5ccc(Cl)cc5)C(=O)[C@H]3N(CCCO)C(=O)[C@]4(C)C2C(=O)O1 (some centres not stated)	-0.0553
NCCCC[C@@H]1NC(=O)[C@H]2C[C@@H](C(=O)NCc3ccc(F)cc3)[C@@H](c3cccc(OCCO)c3)N2C1=O	-0.0119
COCCOC(=O)N1C(=O)[C@@]2(c3ccccc31)[C@H](c1ccc(OCCO)cc1)N1[C@H](c3ccccc3)[C@H](c3ccccc3)OC(=O)[C@H]1[C@@H]2C(=O)N1CCN(c2ncccn2)CC1	-0.043
[N-]=[N+]=Nc1ccccc1[C@@H]1OC(c2ccc(OCCCO)cc2)=N[C@]1(Cc1ccccc1)C(N)=O	0.173

* * *

# subject of test: NADPH oxidase 4 (Homo sapiens) (UniProt Q9NPH5)
# Sequence (Q9NPH5 whole entry, looked up): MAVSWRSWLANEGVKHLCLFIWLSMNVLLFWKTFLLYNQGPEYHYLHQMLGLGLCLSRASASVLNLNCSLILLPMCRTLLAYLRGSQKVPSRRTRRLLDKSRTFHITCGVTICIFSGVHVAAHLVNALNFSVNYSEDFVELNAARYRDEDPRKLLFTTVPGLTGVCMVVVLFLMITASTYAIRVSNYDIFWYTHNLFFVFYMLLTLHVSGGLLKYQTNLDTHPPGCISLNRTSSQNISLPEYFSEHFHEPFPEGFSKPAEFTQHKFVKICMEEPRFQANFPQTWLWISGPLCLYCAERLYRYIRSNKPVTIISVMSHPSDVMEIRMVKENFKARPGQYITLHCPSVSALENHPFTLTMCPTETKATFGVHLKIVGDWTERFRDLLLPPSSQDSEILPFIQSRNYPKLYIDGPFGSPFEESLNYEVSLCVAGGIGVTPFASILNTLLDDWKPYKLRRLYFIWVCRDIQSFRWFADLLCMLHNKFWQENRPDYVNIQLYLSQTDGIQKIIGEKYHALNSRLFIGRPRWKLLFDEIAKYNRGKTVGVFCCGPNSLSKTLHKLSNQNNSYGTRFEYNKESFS
# assay overview: NOX4-dependent H2O2 signal modulators, primary screen, NOX inhibitor project, cell-based, HEK293-NOX4, tetracycline-induced, Amplex Red fluorescence (AID 1160)
# cond: 45 min, higher = more signal, called active from +8 up or from −8 down
# z-score per entry

compound	z-score
COC(=O)[C@@]1(Cc2ccccc2)[C@@H]2[C@@H](CC(=O)[C@H]2CC(=O)C(=O)N(C)C)CN1C(=O)c1ccccc1	0.766
C=C(COC)/C(=C/C[C@H](OC(=O)c1ccncc1)c1cccc(OCCO)c1)c1cnc2ccccc2c1	0.24
O=C(NCC(F)(F)F)[C@@H]1c2ccccc2C(=O)N(CC23CC4CC(CC(C4)C2)C3)[C@H]1c1ccc(CO)cc1	-0.0154
COCC1=C([C@H](O)CCc2ccccc2)[C@H](CO)n2c(=O)n(-c3ccccc3)c(=O)n2C1	-2.05
CC(=O)c1ccc(C(O)C2C=CC3C(=O)N(C)C(=O)C3N2NC(=O)OC(C)(C)C)cc1 (stereo unspecified)	-1.57
COC(=O)[C@@]1(Cc2ccc(F)cc2)[C@H]2c3cc(C(=O)N(C)C)n(CCn4cc([N+](=O)[O-])nc4C)c3C[C@H]2CN1C(=O)c1ccccc1	-0.00316
CCN(CC)c1ccc(N2CC=CC34O[C@@H]5C=CCOC(=O)[C@@H]5[C@H]3C(=O)N(CCCO)[C@@H]4C2=O)cc1 (stereo partly specified)	-0.497
CC(C)c1ccc(NN2C(C(O)C(C)C)C=CC3C(=O)N(c4ccccc4)C(=O)C32)cc1 (stereo unspecified)	-4.22
COc1ccc([Si](C)(C)[C@H]2[C@H](CCO)O[C@@]3(C(=O)N(Cc4ccccc4)c4ccc(N(C=O)c5ccccc5)cc43)[C@@H]2C)cc1	0.184
COC(=O)[C@@]1(CCS(=O)(=O)c2ccccc2)N=C(c2ccc(OCCCO)cc2)O[C@H]1c1ccccc1N=[N+]=[N-]	1.02
CC=CC(O)C1C=CC2C(=O)N(C)C(=O)C2N1NC(=O)OC(C)(C)C (stereo unspecified)	-1.37
C[N+](C)(C)CCCCCCNC(=O)[C@H]1C[C@H]2C(=O)NCC(=O)N2[C@H]1c1cccc(OCCO)c1	1.12
CC(C)C(=C=CC[C@@H](O)c1cccc(OCCO)c1)CCO	-0.471
COC(=O)[C@]1(CO)N=C(c2ccc(OCCCO)cc2)O[C@@H]1c1ccccc1CN=[N+]=[N-]	-0.0289
CN(C)CCCC[C@@H]1NC(=O)[C@@H]2C[C@H](C(=O)NCc3ccc(F)cc3)[C@H](c3ccc(O)cc3)N2C1=O	-0.25
CC(=O)NCCCC[C@@H]1NC(=O)[C@@H]2C[C@H](C(=O)NCCCCCC[N+](C)(C)C)[C@H](c3ccc(O)cc3)N2C1=O	0.983

* * *

# subject of test: Concanavalin-A (Canavalia ensiformis)
# assay overview: ConA small-molecule binders, primary screen, artefact control for SMM control protein annotation, biochemical, small-molecule microarray, Alexa647 label, 635 nm (AID 1127);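 also: z combines 667 nm emission intensity with signal-to-noise across three replicate slides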
# cond: ConA-A647 binding fluorescence, higher = more signal
# composite z-score per entry
endpoint label: composite z-score

compound	value reported
COCCOC(=O)N1C(=O)[C@@]2(c3cc(C#CC4(O)CCCCCC4)ccc31)[C@H](c1ccccc1OCCO)N1[C@H](c3ccccc3)[C@H](c3ccccc3)OC(=O)[C@H]1[C@@H]2C(=O)N1CCCCCCC1	0.992
CC(C)CNC(=O)[C@@H]1c2ccccc2C(=O)N(Cc2ccccc2)[C@H]1c1ccc(CO)cc1	-0.102
C[N+](C)(C)CCCC[C@@H]1NC(=O)[C@H]2C[C@@H](C(=O)NCCCCCNC(=O)CS)[C@@H](c3ccc(O)cc3)N2C1=O	0.997
CCC(CC)C(O)C1C=CC2C(=O)N(C)C(=O)C2N1N1CCCCC1 (stereo not given)	1.13
COCCOC(=O)N1C(=O)[C@@]2(c3cc(C#CCC(C(=O)OC)C(=O)OC)ccc31)[C@H](C(=O)N1CCCCCCC1)[C@H]1C(=O)O[C@H](c3ccccc3)[C@H](c3ccccc3)N1[C@@H]2c1ccccc1OCCO	1.06
CCCC[C@@H]1C[C@H]1[C@@H](NC(=O)Cc1ccccc1)c1ccc(Cl)cc1	1.16
[N-]=[N+]=NCc1ccccc1[C@H]1OC(c2ccc(OCCCO)cc2)=N[C@@]1(Cc1ccccc1)C(=O)N1CCOCC1	1.14
C[N+](C)(C)CCCCCCNC(=O)[C@@H]1C[C@@H]2C(=O)N[C@@H](Cc3ccccc3)C(=O)N2[C@@H]1c1ccc(O)cc1	1.12
CC(C)[Si](C#CCCCC#N)(O[C@H](c1ccccc1)c1cn([C@H](C)c2ccccc2)nn1)C(C)C	0.444
O=c1cccc(-c2ccccc2C(F)(F)F)o1	-0.407
C=CCN1C(=O)[C@]2(O[C@H](CCO)[C@@H]([Si](C)(C)c3ccc(OC)cc3)[C@@H]2C)c2ccccc21	0.201
COC(=O)[C@@]1(Cc2ccc(F)cc2)[C@H]2c3cc(C(=O)N(C)C)n(CCN4CCOCC4)c3C[C@H]2CN1C(=O)c1ccccc1	0.618
C/C=C/CN(C(=O)C#Cc1ccccc1)[C@H](CO[Si](C)(C)C(C)(C)C)c1ccccc1	-1.17
CC1CC/C=C\[C@H]2OC34C=CCN(c5ccc(Cl)cc5)C(=O)[C@H]3N(CCCO)C(=O)[C@]4(C)C2C(=O)O1 (stereo not given in full)	-0.749
CN1C(=O)C2C=CC(C(O)c3ccc(-c4ccccc4)s3)N(Nc3ccccc3)C2C1=O (stereo not given)	1.15
CCCC[C@@H]1C[C@H]1[C@@H](NC(=O)c1ccc(C(F)(F)F)cc1)c1ccc(C(=O)OC)cc1	0.441
N[C@@H](Cc1ccccc1)Cn1cc(C2(O)CCCCC2)nn1	0.88
Cc1ccc(S[C@]2(C(=O)NC3CC3)CC(=O)N(Cc3cc(C(F)(F)F)cc(C(F)(F)F)c3)[C@@H]2c2ccc(CO)cc2I)cc1	1.07
CC(C)C[C@H]1NC(=O)[C@@H](C)NC(=O)[C@@]23C(=O)N[C@@H](Cc4ccccc4)C2[C@H](C)[C@@]2(C)O[C@H]2C3/C=C/C/C=C\CNC1=O (stereo not given in full)	0.124
C=C(CCCC)/C(=C/C[C@H](OC(C)=O)c1cccc(OCCO)c1)c1cc(C(=O)OC)ccc1OC	-0.795
CN(C)C(=O)[C@]1(Cc2ccccc2CN=[N+]=[N-])N=C(c2ccc(OCCCO)cc2)O[C@@H]1c1ccccc1N=[N+]=[N-]	1.07
COC(=O)[C@@]1(Cc2ccccc2CN=[N+]=[N-])COC(c2ccc(OCCCO)cc2)=N1	-1.38
CO[C@H]1O[C@H](CO)[C@@H](OC(=O)Nc2ccc3c(c2)OCO3)[C@@H]2OC(=O)[C@@H](Cc3ccccc3)C/C=C/C[C@H](Cc3ccccc3)C(=O)O[C@@H]12	0.921
COCCOC(=O)N1C(=O)[C@@]2(c3cc(C#CC4=CCCCC4)ccc31)[C@H](c1ccc(OCCO)cc1)N1[C@H](c3ccccc3)[C@H](c3ccccc3)OC(=O)[C@H]1[C@@H]2C(=O)N1CCCCCCC1	1.11
CC(C)C[C@@H]1NC(=O)[C@@H]2C[C@H](C(=O)O)[C@H](c3ccc(O)cc3)N2C1=O	1.21
C=CCNC(=O)[C@H]1[C@@H]2C(=O)O[C@@H](c3ccccc3)[C@@H](c3ccccc3)N2[C@@H](c2ccc(O)cc2)[C@]12C(=O)Nc1ccc(C#CC3=CCCCC3)cc12	1.12
O=C1C2C=CC(C(O)c3ccc([N+](=O)[O-])cc3)N(Nc3ccccc3)C2C(=O)N1c1ccccc1 (stereo not given)	0.49
CCCCN1CC=CC23O[C@@H]4C=CCOC(=O)[C@@H]4[C@H]2C(=O)N(CCO)[C@@H]3C1=O (stereo not given in full)	-1.09
COCC(=C=CC[C@@H](O)c1cccc(OCCO)c1)C[C@@H](O)COCc1ccccc1	0.132
CN1C(=O)[C@]2(CCC(=O)OC(C)(C)C)N=C(c3ccc(OCCCO)cc3)O[C@@H]2c2ccccc21	1.12
